target: Leucine-rich repeat serine/threonine-protein kinase 2 (Homo sapiens) (UniProt Q5S007); details: at 1 µM;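 also: mean percent inhibition of LRRK2 measured in the GSK PKIS kinase inhibitor set screen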
Sequence (Q5S007 whole entry): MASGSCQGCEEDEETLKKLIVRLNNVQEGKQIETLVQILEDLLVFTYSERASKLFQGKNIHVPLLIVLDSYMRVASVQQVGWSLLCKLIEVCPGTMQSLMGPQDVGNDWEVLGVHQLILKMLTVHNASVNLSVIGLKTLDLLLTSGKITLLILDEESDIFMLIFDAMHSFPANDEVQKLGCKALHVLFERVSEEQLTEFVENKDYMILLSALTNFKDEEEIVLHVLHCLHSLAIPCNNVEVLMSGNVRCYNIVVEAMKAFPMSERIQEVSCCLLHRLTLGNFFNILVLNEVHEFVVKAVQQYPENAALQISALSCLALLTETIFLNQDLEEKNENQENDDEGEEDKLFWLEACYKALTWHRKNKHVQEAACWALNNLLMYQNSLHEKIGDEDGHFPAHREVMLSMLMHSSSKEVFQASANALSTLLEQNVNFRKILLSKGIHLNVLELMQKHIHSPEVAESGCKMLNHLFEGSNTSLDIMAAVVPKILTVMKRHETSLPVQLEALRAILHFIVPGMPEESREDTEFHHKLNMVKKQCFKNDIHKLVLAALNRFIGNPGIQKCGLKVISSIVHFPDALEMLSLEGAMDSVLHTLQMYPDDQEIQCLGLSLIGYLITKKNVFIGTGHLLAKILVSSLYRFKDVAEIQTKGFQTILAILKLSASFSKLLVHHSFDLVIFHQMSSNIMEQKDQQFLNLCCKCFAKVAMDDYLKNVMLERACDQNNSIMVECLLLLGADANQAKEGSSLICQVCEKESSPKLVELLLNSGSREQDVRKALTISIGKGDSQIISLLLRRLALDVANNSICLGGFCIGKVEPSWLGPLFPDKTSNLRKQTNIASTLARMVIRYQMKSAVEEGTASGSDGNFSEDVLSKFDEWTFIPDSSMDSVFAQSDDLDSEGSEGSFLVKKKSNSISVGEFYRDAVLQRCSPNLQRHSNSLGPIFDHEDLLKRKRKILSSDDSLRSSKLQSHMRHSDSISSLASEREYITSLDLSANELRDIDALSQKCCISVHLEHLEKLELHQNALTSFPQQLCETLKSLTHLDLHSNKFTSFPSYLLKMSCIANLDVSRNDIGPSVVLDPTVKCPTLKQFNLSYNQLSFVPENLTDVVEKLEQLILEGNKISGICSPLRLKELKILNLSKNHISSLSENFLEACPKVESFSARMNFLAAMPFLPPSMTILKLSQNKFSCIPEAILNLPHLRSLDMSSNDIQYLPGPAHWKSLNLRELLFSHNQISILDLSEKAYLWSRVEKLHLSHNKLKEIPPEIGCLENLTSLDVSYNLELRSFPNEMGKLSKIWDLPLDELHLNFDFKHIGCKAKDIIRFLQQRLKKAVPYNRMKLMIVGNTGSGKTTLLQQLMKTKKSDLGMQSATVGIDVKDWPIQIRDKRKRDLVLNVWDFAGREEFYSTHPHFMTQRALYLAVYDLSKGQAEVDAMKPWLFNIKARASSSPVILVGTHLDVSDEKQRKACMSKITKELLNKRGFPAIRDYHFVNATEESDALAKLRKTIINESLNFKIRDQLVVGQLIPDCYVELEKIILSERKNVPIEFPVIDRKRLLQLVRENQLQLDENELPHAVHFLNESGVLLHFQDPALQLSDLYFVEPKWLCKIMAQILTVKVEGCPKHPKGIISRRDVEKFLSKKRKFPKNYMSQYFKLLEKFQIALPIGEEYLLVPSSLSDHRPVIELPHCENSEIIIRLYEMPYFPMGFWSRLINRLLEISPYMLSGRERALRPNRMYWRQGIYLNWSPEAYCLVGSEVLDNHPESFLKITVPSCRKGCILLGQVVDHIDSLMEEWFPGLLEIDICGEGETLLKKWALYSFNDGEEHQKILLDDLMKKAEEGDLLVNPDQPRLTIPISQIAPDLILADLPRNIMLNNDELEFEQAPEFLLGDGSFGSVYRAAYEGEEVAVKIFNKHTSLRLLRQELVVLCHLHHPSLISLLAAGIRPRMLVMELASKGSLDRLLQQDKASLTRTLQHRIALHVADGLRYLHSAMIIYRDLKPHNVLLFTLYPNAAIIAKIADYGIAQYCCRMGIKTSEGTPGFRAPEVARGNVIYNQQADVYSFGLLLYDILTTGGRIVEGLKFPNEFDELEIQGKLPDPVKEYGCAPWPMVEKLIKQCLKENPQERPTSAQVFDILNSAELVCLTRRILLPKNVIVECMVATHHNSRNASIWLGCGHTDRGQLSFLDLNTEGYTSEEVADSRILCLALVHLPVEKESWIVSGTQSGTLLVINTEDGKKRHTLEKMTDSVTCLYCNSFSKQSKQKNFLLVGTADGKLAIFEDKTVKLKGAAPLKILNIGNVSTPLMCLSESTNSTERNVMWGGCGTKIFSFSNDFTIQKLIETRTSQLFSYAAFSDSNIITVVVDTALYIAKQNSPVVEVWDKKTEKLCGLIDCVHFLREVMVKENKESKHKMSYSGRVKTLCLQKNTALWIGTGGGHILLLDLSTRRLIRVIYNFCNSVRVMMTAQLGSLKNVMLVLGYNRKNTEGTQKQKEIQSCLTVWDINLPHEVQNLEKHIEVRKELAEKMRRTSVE
As shown below, each of these compounds has a reported inhibition value.
I only need the number, in %, no unit after it.

Here are 2 compounds together with their reported answers.
1) Fc1ccc(-c2cc(-c3c[nH]nc3-c3ccccn3)ccn2)cc1	5.28
2) COC(=O)c1sc(-n2cnc3cc(OC)c(OC)cc32)cc1OCc1ccccc1C(F)(F)F	10.7

Note to self: inhibition recorded for COc1cc(Nc2nccc(Nc3ccc4c(C)n[nH]c4c3)n2)cc(OC)c1OC was 17.6

Query COC(=O)Nc1nc2ccc(Oc3ccc(NC(=O)Nc4cccc(Cl)c4)cc3)cc2[nH]1 yields inhibition of 14.1

---

Below, each of the compounds is paired with its reported inhibition value.
biological target: Serine/threonine-protein kinase MARK1 (Homo sapiens); conditions: at 1 µM;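 also: reported values are mean percent inhibition of MARK1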
Record the value in %, omitting the unit from your answer.

Take a look at these entries with their results.
1. O=S(=O)(CCNCc1ccc(-c2ccc3ncnc(Nc4ccc(OCc5cccc(F)c5)c(Cl)c4)c3c2)o1)c1ccccc1	5.01
2. COc1cc(Nc2nccc(Nc3ccc4c(C)n[nH]c4c3)n2)cc(OC)c1OC	8.82
3. CN(C)CCOc1ccc(-c2nc(-c3ccncc3)c(-c3ccc4c(c3)CC/C4=N\O)[nH]2)cc1	3.97
4. c1ccc(COc2ccc(Nc3ncnc4ccc(-c5ccco5)cc34)cc2)cc1	1.8
5. Cc1cccc2c1NC(=O)/C2=N\Nc1ccc(S(N)(=O)=O)cc1	3.2

Measured inhibition (Serine/threonine-protein kinase MARK1 (Homo sapiens)), entry CCn1c(-c2nonc2N)nc2cnc(Oc3cccc(NC(=O)c4ccc(N(C)C)cc4)c3)cc21 : 10.8

Short answer on Serine/threonine-protein kinase MARK1 (Homo sapiens) for c1cc(-c2cnn3nc(N4CCOCC4)ccc23)nc(NC2CC2)n1 , inhibition: 10.3

Reported Serine/threonine-protein kinase MARK1 (Homo sapiens) inhibition for item COc1ccc2[nH]c3c4[nH]c5ccc(OC)cc5c4c4c(c3c2c1)C(=O)NC4=O was 38.8

Known value: Serine/threonine-protein kinase MARK1 (Homo sapiens) inhibition of the compound CCN1CCC(CC(=O)Nc2n[nH]c3nnc(-c4cccc(F)c4F)cc23)CC1 equals 2.48

The observed inhibition for CCCN(CCS(C)(=O)=O)Cc1ccc(-c2ccc3ncnc(Nc4ccc(OCc5cccc(F)c5)c(Cl)c4)c3c2)o1 when tested with Serine/threonine-protein kinase MARK1 (Homo sapiens) stands at 0.29

Considering Cc1cccc(Nc2ncc(-c3ccccc3)o2)c1 , its inhibition with Serine/threonine-protein kinase MARK1 (Homo sapiens) was recorded as 8.07

The observed inhibition for CC(C)(CO)CNC(=O)c1ccc2c(c1)/C(=N/Nc1ccc(S(N)(=O)=O)cc1)C(=O)N2 when tested with Serine/threonine-protein kinase MARK1 (Homo sapiens) stands at 52.5

COc1cc(N2CCN(C(C)C)CC2)ccc1Nc1nc(Nc2ccc(F)cc2C(N)=O)c2cc[nH]c2n1 tested on Serine/threonine-protein kinase MARK1 (Homo sapiens) gave inhibition: 47.7

Value sought: inhibition, system Serine/threonine-protein kinase MARK1 (Homo sapiens), item CCOc1ccc2c(-c3ccnc(Nc4cccc(C(F)(F)F)c4)n3)cnn2n1 . Result: 3.98

Entry [O-][S+]1CCN(Cc2ccc(-c3ccc4ncnc(Nc5ccc(OCc6cccc(F)c6)c(Cl)c5)c4c3)o2)CC1 ; assay system Serine/threonine-protein kinase MARK1 (Homo sapiens); inhibition recorded at 3.65
